Tested on: Danio rerio larvae (5 dpf)
measurement-notes: difference in habituation to acoustic stimuli vs DMSO (percentage points); higher = more habituation than DMSO
recorded-conditions: 10 µM; exposure time 6 h
Counter-ions that a name gives are not always drawn.
Response key: Y means difference in habituation to acoustic stimuli >= 2; N means difference in habituation to acoustic stimuli < 2.

compound="O=C1CC[C@@]2(O)[C@H]3Cc4ccc(O)c5c4[C@@]2(CCN3CC2CC2)[C@H]1O5 [Naltrexone (hydrochloride)]" answer_label=Y
compound="COc1ccc2c(c1)[C@]13CCCC[C@@H]1[C@H](C2)N(C)CC3 [Dextromethorphan (hydrobromide hydrate)]" answer_label=N
compound="O=C(O[C@H]1C[N+]2(CCCOc3ccccc3)CCC1CC2)C(O)(c1cccs1)c1cccs1 [Aclidinium (bromide)]" answer_label=N
compound="C=CCN1CC[C@]23c4c5ccc(O)c4O[C@H]2[C@@H](OCCOCCOCCOCCOCCOCCOCCOC)CC[C@@]3(O)[C@H]1C5 [Naloxegol (oxalate)]" answer_label=Y
compound="Cc1cccc([C@H](C)c2c[nH]cn2)c1C [Dexmedetomidine (hydrochloride)]" answer_label=N
compound=O=C(O)CCCc1ccc(N(CCCl)CCCl)cc1 answer_label=N
compound="CC(O)(CS(=O)(=O)c1ccc(F)cc1)C(=O)Nc1ccc(C#N)c(C(F)(F)F)c1 (stereo not drawn) [Bicalutamide]" answer_label=Y
compound="CN(C)C(=O)Oc1ccc[n+](C)c1 [Pyridostigmine (bromide)]" answer_label=Y
compound="CC(=O)O[C@H]1C[C@@H]2CC[C@@H]3[C@H](CC[C@@]4(C)[C@H]3C[C@H]([N+]3(C)CCCCC3)[C@@H]4OC(C)=O)[C@@]2(C)C[C@@H]1[N+]1(C)CCCCC1 [Pancuronium (bromide hydrate)]" answer_label=N
compound=C=CCN1C[C@H](C(=O)N(CCCN(C)C)C(=O)NCC)C[C@@H]2c3cccc4[nH]cc(c34)C[C@H]21 answer_label=Y
compound=Nc1ccncc1 answer_label=N
compound=NCC1(CC(=O)O)CCCCC1 answer_label=Y

The origin of these recorded values is the supplement of paper PMC10515830.
